- system_name: HIF-PH2 (EGLN1) (Homo sapiens, UniProt Q9GZT9)
- Construct: made in house; host or cells: insect Hi5 cells
- Sequence (Q9GZT9 whole entry, species assumed): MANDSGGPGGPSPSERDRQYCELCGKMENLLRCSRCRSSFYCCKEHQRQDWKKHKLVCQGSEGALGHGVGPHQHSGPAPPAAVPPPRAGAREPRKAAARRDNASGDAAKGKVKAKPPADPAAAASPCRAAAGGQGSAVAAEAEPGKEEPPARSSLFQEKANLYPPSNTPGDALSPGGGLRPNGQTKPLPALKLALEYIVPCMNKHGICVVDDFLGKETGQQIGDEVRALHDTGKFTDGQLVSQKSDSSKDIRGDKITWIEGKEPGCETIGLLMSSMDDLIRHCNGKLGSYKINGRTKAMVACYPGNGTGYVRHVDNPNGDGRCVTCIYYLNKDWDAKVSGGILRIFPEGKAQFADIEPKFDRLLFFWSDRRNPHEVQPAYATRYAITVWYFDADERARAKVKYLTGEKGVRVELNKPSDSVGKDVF
- protocol_summary: HIF-PH assay (14CO2 capture, peptide-dependent turnover)
- Format: biochemical
- recorded_conditions: Concentration 200.00 μM
parameter: inhibition at 200 µM (%)

chemical_smiles=COc1ccc(-c2noc3c(O)c(C(=O)NCC(=O)O)nc(C#N)c23)cc1 parameter="inhibition at 200 µM" unit_abbreviation=% observed=99.4
chemical_smiles=Cc1nc(C(=O)NCC(=O)O)c(O)c2oc(-c3ccccc3)nc12 parameter="inhibition at 200 µM" unit_abbreviation=% observed=48.9
chemical_smiles=C#Cc1nc(C(=O)NCC(=O)O)c(O)c2onc(-c3ccccc3)c12 parameter="inhibition at 200 µM" unit_abbreviation=% observed=100
chemical_smiles=O=C(O)CNC(=O)c1ncc2c(-c3ccncc3)noc2c1O parameter="inhibition at 200 µM" unit_abbreviation=% observed=100
chemical_smiles=O=C(O)CNC(=O)c1ncc2c(-c3cccs3)noc2c1O parameter="inhibition at 200 µM" unit_abbreviation=% observed=99
chemical_smiles=CCc1nc(C(=O)NCC(=O)O)c(O)c2oc(-c3ccccc3)nc12 parameter="inhibition at 200 µM" unit_abbreviation=% observed=99.2
chemical_smiles=O=C(O)CNC(=O)c1ncc2nc(-c3ccccc3)oc2c1O parameter="inhibition at 200 µM" unit_abbreviation=% observed=99.8
chemical_smiles=COc1cccc(-c2nc(C(=O)NCC(=O)O)c(O)c3oc(-c4ccccc4)nc23)c1 parameter="inhibition at 200 µM" unit_abbreviation=% observed=99
chemical_smiles=Cc1nc(C(=O)NCC(=O)O)c(O)c2onc(-c3ccccc3)c12 parameter="inhibition at 200 µM" unit_abbreviation=% observed=99.5
chemical_smiles=O=C(O)CNC(=O)c1ncc2onc(-c3ccccc3)c2c1O parameter="inhibition at 200 µM" unit_abbreviation=% observed=99.9
chemical_smiles=O=C(O)CNC(=O)c1ncc2c(-c3ccccc3)noc2c1O parameter="inhibition at 200 µM" unit_abbreviation=% observed=98.4
